test_target: human KV 1.5 (IKur) (Homo sapiens)
Construct: expressed in transfected cells
test_name: block of IKur current in patch clamped L-929 cells expressing human Kv1.5
Format: cell-based
measurement_context: L929, 0.3 μM; patch clamped mammalian L-929 cells stably expressing human Kv1.5; read-out: KV1_5% Inh L929 @0.3 μM
outcome_measure: inhibition at 0.3 µM (%)
Unit % implied. Number only.

- compound: "COC(=O)C1CCCN1C(=O)c1cncc(-c2nc(NCc3ccccc3)c3c(-c4ccccc4)ccn3n2)c1 (centres unmarked)"
  inhibition at 0.3 µM / %: 95.1
- compound: "CC(C)(O)c1cncc(-c2nc(NCc3ccccc3)c3c(-c4ccccc4)ccn3n2)c1"
  inhibition at 0.3 µM / %: 92.4
- compound: "NS(=O)(=O)c1cncc(-c2nc(NCc3ccccc3)c3c(-c4ccccc4)ccn3n2)c1"
  inhibition at 0.3 µM / %: 96.5
- compound: "COc1ccc(-c2nc(NCc3ccccn3)c3c(-c4ccc(OC)nc4)ccn3n2)cn1"
  inhibition at 0.3 µM / %: 97.8
- compound: "CC(C)(C)OC(=O)NC1(c2nc(NCc3ccccn3)c3c(-c4ccccc4)ccn3n2)CC1"
  inhibition at 0.3 µM / %: 97.3
- compound: "NS(=O)(=O)c1cnc(O)c(-c2nc(NCc3ccccn3)c3c(-c4ccccc4)ccn3n2)c1"
  inhibition at 0.3 µM / %: 79.9

*Q* Give the reported value of inhibition at 0.3 µM for this record: N#C[C@@H]1C[C@H]1c1nc(NCc2ccccn2)c2c(-c3ccccc3)ccn2n1 (racemic)
*A* 98.6

*Q* Look up and report measured inhibition at 0.3 µM for this entry: O=C(Nc1ccncn1)c1nc(NCc2ccccc2)c2c(-c3ccccc3)ccn2n1
*A* 86.4

----------
Recorded measurements of inhibition at 0.3 µM, one per entry
test_target: human KV 1.5 (IKur) (Homo sapiens, UniProt P22460)
Construct: expressed in transfected cells
Sequence (P22460 whole entry): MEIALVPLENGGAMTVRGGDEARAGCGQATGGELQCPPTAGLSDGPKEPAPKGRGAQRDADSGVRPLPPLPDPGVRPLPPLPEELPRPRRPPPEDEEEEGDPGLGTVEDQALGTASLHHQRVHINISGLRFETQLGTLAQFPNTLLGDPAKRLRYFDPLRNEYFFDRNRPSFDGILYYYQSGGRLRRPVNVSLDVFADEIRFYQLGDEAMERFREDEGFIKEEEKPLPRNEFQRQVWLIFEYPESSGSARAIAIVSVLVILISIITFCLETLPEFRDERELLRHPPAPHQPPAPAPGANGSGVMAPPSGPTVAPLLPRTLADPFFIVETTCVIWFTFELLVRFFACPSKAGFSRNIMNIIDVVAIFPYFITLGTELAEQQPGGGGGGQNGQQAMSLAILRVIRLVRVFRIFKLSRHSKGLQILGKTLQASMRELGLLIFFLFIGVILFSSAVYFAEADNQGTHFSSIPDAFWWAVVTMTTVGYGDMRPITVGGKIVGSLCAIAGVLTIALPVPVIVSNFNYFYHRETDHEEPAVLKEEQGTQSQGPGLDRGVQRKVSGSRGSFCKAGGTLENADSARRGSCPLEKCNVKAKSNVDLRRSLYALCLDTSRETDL
test_name: block of IKur current in patch clamped L-929 cells expressing human Kv1.5
Format: cell-based
measurement_context: L929, 0.3 μM; patch clamped mammalian L-929 cells stably expressing human Kv1.5; read-out: KV1_5% Inh L929 @0.3 μM
Write the value in % as a bare number.

# count of solved cases: 5
- molecule: "CC(=O)Nc1ccc(-c2nc(NCc3ccccn3)c3c(-c4ccccc4)ccn3n2)cc1 [Example 26]"
  outcome_measure: "inhibition at 0.3 µM"
  endpoint_value: 94.5
- molecule: "N#Cc1cccc(-c2nc(NCc3ccccn3)c3c(-c4ccccc4)ccn3n2)c1 [Example 66]"
  outcome_measure: "inhibition at 0.3 µM"
  endpoint_value: 89.2
- molecule: "CC(C)CS(=O)(=O)Nc1cncc(-c2nc(NCc3ccccn3)c3c(-c4ccccc4)ccn3n2)c1 [Example 58]"
  outcome_measure: "inhibition at 0.3 µM"
  endpoint_value: 96.1
- molecule: "O=C(O)c1cncc(-c2nc(NCc3ccccn3)c3c(-c4ccccc4)ccn3n2)c1 [Example 10]"
  outcome_measure: "inhibition at 0.3 µM"
  endpoint_value: 86
- molecule: "N#Cc1ccccc1CNc1nc(-c2cncc(S(N)(=O)=O)c2)nn2ccc(-c3ccccc3)c12 [Example 168]"
  outcome_measure: "inhibition at 0.3 µM"
  endpoint_value: 86.8

From here, focus on the item given below.
*Q* Provide inhibition at 0.3 µM, tested on human KV 1.5 (IKur) (Homo sapiens, UniProt P22460), for CCOC(=O)CC(=O)Nc1cncc(-c2nc(NCc3cnccn3)c3c(-c4ccccc4)ccn3n2)c1 [Example 177] .
*A* 96.7
